Target: T1, human LTBR on cells (human, UniProt P36941 31-435)
T1 construct: also called recombinant human LTBR CHO cells; CHO-K1 cells overexpressing human LTBR
Assay: FACS CHO-huLTBR, 0.03 µg/ml
assay_metric: MFI (MFI)
Respond with the bare value in MFI.

QUERY: So what does the record say about MFI for P1AE9457 (antibody, human IgG1, kappa, L234A L235A, V domains shown, human IgG1 PG LALA; from transgenic rabbit immunization; also called LTBR (9457)) VH: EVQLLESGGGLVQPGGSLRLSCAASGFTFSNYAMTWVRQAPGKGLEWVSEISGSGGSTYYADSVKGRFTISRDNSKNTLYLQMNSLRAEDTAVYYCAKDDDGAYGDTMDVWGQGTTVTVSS VL: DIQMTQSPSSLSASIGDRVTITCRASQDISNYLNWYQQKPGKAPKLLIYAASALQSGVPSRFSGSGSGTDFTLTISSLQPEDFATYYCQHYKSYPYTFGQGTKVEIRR ?
RESULT: 7160
